FYI, the data here is from ChEMBL document CHEMBL6182867.

tested on: Acinetobacter baumannii; assay: Antibacterial activity against Acinetobacter baumannii by microplate alamar blue assay; format: functional
Answer each item with its documented MIC90.

Q) Quote MIC90 reported for C[C@H]1c2cccc(O)c2C(=O)C2=C(O)[C@]3(O)C(=O)C(C(N)=O)=C(O)[C@@H](N(C)C)[C@@H]3[C@@H](O)[C@@H]21 [DOXYCYCLINE ANHYDROUS] please.
A) < 0.195 µM

Q) Quote MIC90 reported for CC(C)N(C(=O)CCNCCCC1CCCC1)C(C)C please.
A) > 100 µg/mL

Q) Quote MIC90 reported for CC(C)N(C(=O)CCNCCC(c1ccccc1)c1ccccc1)C(C)C please.
A) > 100 µg/mL

Q) Quote MIC90 reported for COc1c(N2C[C@@H]3CCCN[C@@H]3C2)c(F)cc2c(=O)c(C(=O)O)cn(C3CC3)c12 please.
A) < 0.195 µM

====

system: Mycobacterium tuberculosis; experiment: Antitubercular activity against Mycobacterium tuberculosis KMA 5282 by microplate alamar blue assay; assay type: functional
quantity-measured: MIC90 (µM)
Give the value, in units of µM, as a plain number.

Q) Quote MIC90 reported for CO[C@H]1/C=C/O[C@@]2(C)Oc3c(C)c(O)c4c(O)c(c(/C=N/N5CCN(C)CC5)c(O)c4c3C2=O)NC(=O)/C(C)=C\C=C\[C@H](C)[C@H](O)[C@@H](C)[C@@H](O)[C@@H](C)[C@H](OC(C)=O)[C@@H]1C please.
A) 0.14

Q) Quote MIC90 reported for COc1c(N2C[C@@H]3CCCN[C@@H]3C2)c(F)cc2c(=O)c(C(=O)O)cn(C3CC3)c12 please.
A) 0.48

Q) Quote MIC90 reported for NNC(=O)c1ccncc1 please.
A) 0.98

Q) Quote MIC90 reported for CC(=O)NC[C@H]1CN(c2ccc(N3CCOCC3)c(F)c2)C(=O)O1 please.
A) 1.89

Q) Quote MIC90 reported for COc1nc2ccc(Br)cc2cc1[C@@H](c1ccccc1)[C@@](O)(CCN(C)C)c1cccc2ccccc12 please.
A) 0.24

Q) Quote MIC90 reported for NC(=O)c1cnccn1 [PYRAZINAMIDE] please.
A) 0.92

====

Answer each item with its documented MIC90.
test system: Mycobacteroides chelonae; experiment: Antibacterial activity against Mycobacteroides chelonae ATCC 35752 incubated for 3 days by microplate alamar blue assay; assay type: functional; conditions: ATCC 35752, 72 h, time 3 day
Give the value, in units of µM, as a plain number.

Q) Quote MIC90 reported for CO[C@H]1/C=C/O[C@@]2(C)Oc3c(C)c(O)c4c(O)c(c(/C=N/N5CCN(C)CC5)c(O)c4c3C2=O)NC(=O)/C(C)=C\C=C\[C@H](C)[C@H](O)[C@@H](C)[C@@H](O)[C@@H](C)[C@H](OC(C)=O)[C@@H]1C [RIFAMPIN] please.
A) 6.93

Q) Quote MIC90 reported for COc1nc2ccc(Br)cc2cc1[C@@H](c1ccccc1)[C@@](O)(CCN(C)C)c1cccc2ccccc12 [BEDAQUILINE] please.
A) 0.48

Q) Quote MIC90 reported for CC[C@H]1OC(=O)[C@H](C)[C@@H](O[C@H]2C[C@@](C)(OC)[C@@H](O)[C@H](C)O2)[C@H](C)[C@@H](O[C@@H]2O[C@H](C)C[C@H](N(C)C)[C@H]2O)[C@](C)(OC)C[C@@H](C)C(=O)[C@H](C)[C@@H](O)[C@]1(C)O [CLARITHROMYCIN] please.
A) 0.15

Q) Quote MIC90 reported for CC(=O)NC[C@H]1CN(c2ccc(N3CCOCC3)c(F)c2)C(=O)O1 [LINEZOLID] please.
A) 5.13

Q) Quote MIC90 reported for CC(C)/N=c1\cc2n(-c3ccc(Cl)cc3)c3ccccc3nc-2cc1Nc1ccc(Cl)cc1 [CLOFAZIMINE] please.
A) 5.89
